Test: clinical
Conditions: human, plasma, 20 mg
assay_readout: half-life

Asked: Tell me half-life reported for COc1ccc2[nH]c([S+]([O-])Cc3ncc(C)c(OC)c3C)nc2n1 (racemic) [(±)racemic form]
Given back: ~7 h
